Target sequence: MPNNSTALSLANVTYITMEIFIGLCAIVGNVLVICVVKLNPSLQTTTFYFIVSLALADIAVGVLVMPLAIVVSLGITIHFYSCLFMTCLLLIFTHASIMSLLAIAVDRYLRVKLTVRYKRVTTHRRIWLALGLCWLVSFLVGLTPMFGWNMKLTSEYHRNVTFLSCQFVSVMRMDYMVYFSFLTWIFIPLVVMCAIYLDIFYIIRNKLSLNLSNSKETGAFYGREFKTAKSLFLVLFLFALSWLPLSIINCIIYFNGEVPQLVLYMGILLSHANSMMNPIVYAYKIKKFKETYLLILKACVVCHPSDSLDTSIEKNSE
I'd appreciate it if you could supply Ki values for the items below.
The reply must contain the numeric value and, after it, the unit.

Give its Ki value. Item: COc1cc(CCNc2nc(OCC(C)C)nc3c2ncn3[C@H]2[C@H](O)[C@H](O)[C@@H]3C[C@@H]32)ccc1O
13.1 nM

For the compound shown here, CNC(=O)[C@@]12C[C@@H]1[C@@H](n1cnc3c(NCCc4ccc(O)c(OC)c4)nc(C#Cc4ccccc4)nc31)[C@H](O)[C@@H]2O , give the reported Ki.
0.563 nM

Can you share its Ki? I mean this compound: CNC(=O)[C@@]12C[C@@H]1[C@@H](n1cnc3c(NCCc4ccc(O)c(OC)c4)nc(I)nc31)[C@H](O)[C@@H]2O
6.34 nM

What measured Ki goes with CNC(=O)[C@@]12C[C@@H]1[C@@H](n1cnc3c(NCCc4ccccc4)nc(I)nc31)[C@H](O)[C@@H]2O ?
4.48 nM

---

Can you tell me EC50 for the items I'm about to list?
assay_target: Adenosine receptor A3 (Homo sapiens)
assay_protocol: Agonist activity at human adenosine A3A receptor stably expressed in HEK293 cells assessed as beta arrestin 2 recruitment potency by luciferase based NanoBiT assay
Type: functional, cell-based
Field format: number, assumed nM, no unit text.

Recorded EC50 of CNC(=O)[C@@]12C[C@@H]1[C@@H](n1cnc3c(NCCc4ccc(OC)c(O)c4)nc(OC)nc31)[C@H](O)[C@@H]2O , please.
50.2

I have this compound here, CNC(=O)[C@@]12C[C@@H]1[C@@H](n1cnc3c(NCCc4ccc(O)c(OC)c4)nc(C#Cc4ccc(Cl)s4)nc31)[C@H](O)[C@@H]2O , and I need its recorded EC50.
39.7

Need EC50 of CNC(=O)[C@@]12C[C@@H]1[C@@H](n1cnc3c(NCCc4ccc(O)c(OC)c4)nc(C#Cc4ccc(F)s4)nc31)[C@H](O)[C@@H]2O , thanks.
24.9

# get_value(readout='EC50', item= CNC(=O)[C@@]12C[C@@H]1[C@@H](n1cnc3c(NCCc4ccccc4)nc(C#Cc4ccc(Cl)s4)nc31)[C@H](O)[C@@H]2O )
64

---

assay_target: Adenosine receptor A2a (Homo sapiens, UniProt P29274)
Sequence (P29274 whole entry): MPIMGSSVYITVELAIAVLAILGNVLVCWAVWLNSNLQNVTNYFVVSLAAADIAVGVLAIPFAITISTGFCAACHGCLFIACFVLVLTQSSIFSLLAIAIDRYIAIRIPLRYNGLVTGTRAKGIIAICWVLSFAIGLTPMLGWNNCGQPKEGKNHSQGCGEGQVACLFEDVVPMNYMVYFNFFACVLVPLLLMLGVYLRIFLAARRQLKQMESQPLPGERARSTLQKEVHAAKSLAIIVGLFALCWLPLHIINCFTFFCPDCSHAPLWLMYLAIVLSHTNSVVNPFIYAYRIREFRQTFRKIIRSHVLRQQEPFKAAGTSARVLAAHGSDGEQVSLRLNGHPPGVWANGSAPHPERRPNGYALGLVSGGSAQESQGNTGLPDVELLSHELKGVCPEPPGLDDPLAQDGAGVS
assay_protocol: Binding affinity to human adenosine A2A receptor expressed in human HEK293 cell membrane at 10 uM by radioligand inhibition assay
Type: cell membranes
measured_parameter: inhibition (%)
Your answer should be a plain number; it is taken to be in %.

Hello, I am looking for reported inhibition with Adenosine receptor A2a (Homo sapiens, UniProt P29274) for CNC(=O)[C@@]12C[C@@H]1[C@@H](n1cnc3c(NCCc4ccc(O)c(OC)c4)nc(C#Cc4cccs4)nc31)[C@H](O)[C@@H]2O . Could you help?
37

For the record CCOC(=O)[C@@]12C[C@@H]1[C@@H](n1cnc3c(NCCc4ccccc4)nc(C#Cc4ccc(Cl)s4)nc31)[C@H](O)[C@@H]2O , what value of inhibition is listed for Adenosine receptor A2a (Homo sapiens, UniProt P29274)?
24

Give Adenosine receptor A2a (Homo sapiens, UniProt P29274) inhibition for CNC(=O)[C@@]12C[C@@H]1[C@@H](n1cnc3c(NCCc4ccc(O)c(OC)c4)nc(C#Cc4ccc(Br)s4)nc31)[C@H](O)[C@@H]2O
43

Request: inhibition, test system Adenosine receptor A2a (Homo sapiens, UniProt P29274), entry CNC(=O)[C@@]12C[C@@H]1[C@@H](n1cnc3c(NCCc4ccc(OC)c(O)c4)nc(C#Cc4ccc(Cl)s4)nc31)[C@H](O)[C@@H]2O
34

---

assay_target: Adenosine receptor A3 (Homo sapiens, UniProt P0DMS8)
Sequence (P0DMS8 whole entry): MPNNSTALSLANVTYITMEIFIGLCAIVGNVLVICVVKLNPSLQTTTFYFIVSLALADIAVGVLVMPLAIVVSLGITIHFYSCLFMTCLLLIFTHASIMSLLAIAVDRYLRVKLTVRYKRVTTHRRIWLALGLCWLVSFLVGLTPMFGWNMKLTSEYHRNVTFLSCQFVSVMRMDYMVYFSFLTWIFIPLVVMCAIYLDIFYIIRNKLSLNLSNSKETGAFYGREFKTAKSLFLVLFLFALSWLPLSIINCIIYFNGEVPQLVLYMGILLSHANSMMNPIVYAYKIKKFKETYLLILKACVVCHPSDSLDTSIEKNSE
Hi there, I'd appreciate the recorded log10 of Ki for every entry that follows.
Please note: log10 values; quantity Ki; unit nM.

Quick check: log10 of Ki of CNC(=O)[C@@]12C[C@@H]1[C@@H](n1cnc3c(NCCc4ccc(OC)c(OC)c4)nc(C#Cc4ccc(Cl)s4)nc31)[C@H](O)[C@@H]2O ?
0.94

Reported log10 of Ki, compound CNC(=O)[C@@]12C[C@@H]1[C@@H](n1cnc3c(NCCc4ccccc4)nc(C#Cc4ccccc4Cl)nc31)[C@H](O)[C@@H]2O : ____
-0.24

Returns the measured log10 of Ki for the input compound. Input: CCOC(=O)[C@@]12C[C@@H]1[C@@H](n1cnc3c(NCCc4ccccc4)nc(C#Cc4ccc(Cl)s4)nc31)[C@H](O)[C@@H]2O
1.78

Need log10 of Ki of CCOC(=O)[C@@]12C[C@@H]1[C@@H](n1cnc3c(NCCc4ccc(O)c(OC)c4)nc(C#Cc4ccc(Cl)s4)nc31)[C@H](O)[C@@H]2O , thanks.
1.57

Suppose we examine the compound CNC(=O)[C@@]12C[C@@H]1[C@@H](n1cnc3c(NCCc4ccc(O)c(O)c4)nc(C#Cc4ccc(Cl)s4)nc31)[C@H](O)[C@@H]2O ; what log10 of Ki value has been reported?
1.32

What log10 of Ki value was documented for this compound, CNC(=O)[C@@]12C[C@@H]1[C@@H](n1cnc3c(NCCc4ccc(O)c(OC)c4)nc(C#Cc4ccco4)nc31)[C@H](O)[C@@H]2O ?
0.51

---

assay_target: Adenosine receptor A2a (Homo sapiens)
assay_protocol: Binding affinity to human adenosine A2A receptor expressed in human HEK293 cell membrane at 10 uM by radioligand inhibition assay
Format: cell membranes
Mark class 1 for reported inhibition of 30% or greater; mark class 0 for anything smaller.

Entry CNC(=O)[C@@]12C[C@@H]1[C@@H](n1cnc3c(NCCc4ccc(O)c(OC)c4)nc(C#Cc4ccccc4)nc31)[C@H](O)[C@@H]2O : is its inhibition no less than 30%?
class 0

Would you say CCOC(=O)[C@@]12C[C@@H]1[C@@H](n1cnc3c(NCCc4ccc(O)c(OC)c4)nc(C#Cc4ccc(Cl)s4)nc31)[C@H](O)[C@@H]2O shows inhibition at minimum 30%?
class 1

Does CCOC(=O)[C@@]12C[C@@H]1[C@@H](n1cnc3c(NCCc4ccc(OC)c(O)c4)nc(C#Cc4ccc(Cl)s4)nc31)[C@H](O)[C@@H]2O have a reported inhibition of at least 30%?
class 0

Hi, just wondering whether CNC(=O)[C@@]12C[C@@H]1[C@@H](n1cnc3c(NCCc4ccc(O)c(OC)c4)nc(C#Cc4ccc(Cl)s4)nc31)[C@H](O)[C@@H]2O shows inhibition of 30% or higher.
class 1

Reported inhibition reaches at least 30% for CNC(=O)[C@@]12C[C@@H]1[C@@H](n1cnc3c(NCCc4ccc(O)c(O)c4)nc(C#Cc4ccc(Br)s4)nc31)[C@H](O)[C@@H]2O ?
class 0

Has CNC(=O)[C@@]12C[C@@H]1[C@@H](n1cnc3c(NCCc4ccc(O)c(OC)c4)nc(C#Cc4ccsc4)nc31)[C@H](O)[C@@H]2O a recorded inhibition greater than or equal to 30%?
class 1

---

assay_protocol: Oral bioavailability in Wistar rat at 3 mg/kg
Format: ADME, organism-based
condition_info: in vivo
measured_parameter: bioavailability (%)
The response must be a number in % with no trailing unit.

Recorded bioavailability for CNC(=O)[C@@]12C[C@@H]1[C@@H](n1cnc3c(NCCc4ccc(OC)c(O)c4)nc(OCC(C)C)nc31)[C@H](O)[C@@H]2O , please?
4.34

---

Record form. Attribute: inhibition. Fill in for each entry.
assay_target: Adenosine receptor A1 (Mus musculus) (UniProt Q60612)
Sequence (whole entry): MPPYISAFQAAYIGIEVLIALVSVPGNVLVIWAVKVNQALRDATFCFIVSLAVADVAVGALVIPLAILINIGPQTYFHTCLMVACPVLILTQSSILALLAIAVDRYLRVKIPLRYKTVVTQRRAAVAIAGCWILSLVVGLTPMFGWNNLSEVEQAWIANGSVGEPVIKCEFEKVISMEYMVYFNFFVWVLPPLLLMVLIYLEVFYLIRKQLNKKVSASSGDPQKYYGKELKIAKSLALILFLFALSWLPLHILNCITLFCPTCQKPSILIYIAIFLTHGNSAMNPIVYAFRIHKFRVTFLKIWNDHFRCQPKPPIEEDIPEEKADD
assay_protocol: Binding affinity to mouse adenosine A1A receptor expressed in human HEK293 cell membrane by radioligand inhibition assay
Format: cell membranes
Parameters: concentration or dose not given beside the values
condition_info: concentration not given here
Provide the reading as a plain figure in %.

Any idea what its inhibition is? The compound is CNC(=O)[C@@]12C[C@@H]1[C@@H](n1cnc3c(NCCc4ccccc4)nc(C#Cc4ccc(Cl)s4)nc31)[C@H](O)[C@@H]2O
42

Quick one: inhibition of CNC(=O)[C@@]12C[C@@H]1[C@@H](n1cnc3c(NCCc4ccc(OC)c(O)c4)nc(C#Cc4ccc(Cl)s4)nc31)[C@H](O)[C@@H]2O ?
44

Name the recorded inhibition for CCOC(=O)[C@@]12C[C@@H]1[C@@H](n1cnc3c(NCCc4ccc(O)c(OC)c4)nc(C#Cc4ccc(Cl)s4)nc31)[C@H](O)[C@@H]2O .
57

# query: inhibition of entry CNC(=O)[C@@]12C[C@@H]1[C@@H](n1cnc3c(NCCc4ccc(O)c(OC)c4)nc(C#Cc4ccsc4)nc31)[C@H](O)[C@@H]2O
61

Fill in the blank: the reported inhibition of CNC(=O)[C@@]12C[C@@H]1[C@@H](n1cnc3c(NCCc4ccc(O)c(OC)c4)nc(C#Cc4ccc(F)s4)nc31)[C@H](O)[C@@H]2O is ____.
48

Query (compound): CNC(=O)[C@@]12C[C@@H]1[C@@H](n1cnc3c(NCCc4ccc(O)c(OC)c4)nc(C#Cc4cccs4)nc31)[C@H](O)[C@@H]2O ; field requested: inhibition
47

Would you kindly share the measured inhibition for CCOC(=O)[C@@]12C[C@@H]1[C@@H](n1cnc3c(NCCc4ccc(OC)c(O)c4)nc(C#Cc4ccc(Cl)s4)nc31)[C@H](O)[C@@H]2O ?
56

GET /values?readout=inhibition&item= CNC(=O)[C@@]12C[C@@H]1[C@@H](n1cnc3c(NCCc4ccc(O)c(OC)c4)nc(C#Cc4ccco4)nc31)[C@H](O)[C@@H]2O
40

Value source: ChEMBL document CHEMBL5154659
